# variant/HC_K99L annotations
# target-or-system: T1, mouse tissue factor pathway inhibitor (TFPI) (mouse, UniProt O54819 29-289, limits assumed)
# T1 construct: bought; also called mTFPI; murine TFPI
# T1 sequence (looked up): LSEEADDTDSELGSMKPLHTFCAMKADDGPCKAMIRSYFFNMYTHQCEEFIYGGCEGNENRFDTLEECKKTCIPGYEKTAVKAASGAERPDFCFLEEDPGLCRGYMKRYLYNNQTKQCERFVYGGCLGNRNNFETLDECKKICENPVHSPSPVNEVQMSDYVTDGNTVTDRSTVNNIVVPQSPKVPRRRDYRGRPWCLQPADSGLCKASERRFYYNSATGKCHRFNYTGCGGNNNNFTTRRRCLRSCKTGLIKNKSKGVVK
# experiment-description: competitive ELISA
Answer with a number only, understood to be in ratio.

Take a look at these entries with their results.
INSERT INTO measurements (binder, quantity, recorded_number) VALUES
  ('2A8 HC Q1E+R30S+S35D+S55R+S56G+K99L/LC D1S+I2Y+A13S+S21T+R28P+Y48F+N51V+E80M+S89A+D91W+D92S+G93S+V94T (Fab, V domains shown) VH: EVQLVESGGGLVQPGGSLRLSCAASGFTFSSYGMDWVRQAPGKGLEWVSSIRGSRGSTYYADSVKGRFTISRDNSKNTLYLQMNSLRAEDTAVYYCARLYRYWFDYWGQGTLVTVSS VL: SYELTQPPSVSVSPGQTARITCSGDNLPNYYAHWYQQKPGQAPVVVIFYDVNRPSGIPERFSGSNSGNTATLTISGTQAMDEADYYCQAWWSSTPVFGGGTKLTVLG', 'variant/HC_K99L', 12.3),
  ('2A8 HC S31V+I51D+S55R+K99V/LC D1S+I2Y+A13S+S21T+R28P+N29K+Y48F+E80M+D91L+D92S+V94T+V96W (Fab, V domains shown) VH: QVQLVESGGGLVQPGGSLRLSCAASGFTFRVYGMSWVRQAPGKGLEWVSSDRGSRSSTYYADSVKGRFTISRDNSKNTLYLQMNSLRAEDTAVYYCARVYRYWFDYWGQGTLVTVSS VL: SYELTQPPSVSVSPGQTARITCSGDNLPKYYAHWYQQKPGQAPVVVIFYDNNRPSGIPERFSGSNSGNTATLTISGTQAMDEADYYCQSWLSGTPWFGGGTKLTVLG', 'variant/HC_K99L', 15.4),
  ('2A8 HC S35D+S55R+K99L/LC S21T+Y48F+N51V+D91W (Fab, V domains shown) VH: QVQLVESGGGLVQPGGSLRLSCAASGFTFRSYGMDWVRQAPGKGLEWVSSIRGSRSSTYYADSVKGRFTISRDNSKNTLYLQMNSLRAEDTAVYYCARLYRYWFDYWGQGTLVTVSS VL: DIELTQPPSVSVAPGQTARITCSGDNLRNYYAHWYQQKPGQAPVVVIFYDVNRPSGIPERFSGSNSGNTATLTISGTQAEDEADYYCQSWWDGVPVFGGGTKLTVLG', 'variant/HC_K99L', 18.8);

Give the value of variant/HC_K99L reported for the following: 2A8 HC Q1E+R30S+S35D+S55R+S56G+K99L/LC Y48F+N51V+D91W (Fab, V domains shown) VH: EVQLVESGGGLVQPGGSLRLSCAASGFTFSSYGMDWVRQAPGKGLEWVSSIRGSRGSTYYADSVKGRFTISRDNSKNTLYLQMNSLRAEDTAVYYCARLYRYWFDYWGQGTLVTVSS VL: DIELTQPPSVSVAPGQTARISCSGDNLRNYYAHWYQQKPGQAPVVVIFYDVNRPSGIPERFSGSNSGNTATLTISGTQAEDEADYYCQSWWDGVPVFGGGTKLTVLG
9.3

Indicate its recorded variant/HC_K99L; the binder in question is 2A8 HC S35D+K99L/LC Y48F+S89A+D91L+V96W (Fab, V domains shown) VH: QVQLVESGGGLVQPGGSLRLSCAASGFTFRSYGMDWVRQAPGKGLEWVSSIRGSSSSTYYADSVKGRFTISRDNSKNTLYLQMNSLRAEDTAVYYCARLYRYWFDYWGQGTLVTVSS VL: DIELTQPPSVSVAPGQTARISCSGDNLRNYYAHWYQQKPGQAPVVVIFYDNNRPSGIPERFSGSNSGNTATLTISGTQAEDEADYYCQAWLDGVPWFGGGTKLTVLG
6.1

Data credit: patent USRE47150
